// provenance: patent US8796247B2

Recorded measurements of pIC50, one per entry
- subject.of.test: UniProt:P70597
- method.description: Test for confirmation of EP1 receptor antagonism: inhibition of prostaglandin E2-induced increase in intracellular calcium concentration in rat EP1 receptor-expressing COS-1 cells
- conditions.used: prostaglandin E2 10 nM, intracellular calcium fluorescence signal
Please keep in mind that pIC50 is minus log10 of the molar concentration; only the number is needed.

# annotated cases, reported pIC50 shown
[
  {
    "compound": "COc1ccc2c(c1)cc(-c1ccccc1)n2Cc1ccc(-c2nnn[nH]2)o1",
    "val": 7.38
  },
  {
    "compound": "CCC(C)c1cc2cc(OC)c(Cl)cc2n1Cc1cccc(C(=O)NS(=O)(=O)CC)n1 (centres unmarked)",
    "val": 7.51
  },
  {
    "compound": "COc1ccc2c(c1)cc(-c1ccccc1)n2Cc1cccc(C(=O)NS(C)(=O)=O)n1",
    "val": 7.33
  },
  {
    "compound": "COc1cc2cc(-c3ccoc3)n(Cc3cccc(-c4nnn[nH]4)n3)c2cc1Cl",
    "val": 7.46
  },
  {
    "compound": "CCCS(=O)(=O)NC(=O)c1cccc(Cn2c(-c3ccccc3)cc3cc(OC)ccc32)n1",
    "val": 7.52
  },
  {
    "compound": "CCS(=O)(=O)NC(=O)c1cccc(Cn2c(-c3cc(F)ccc3F)cc3cc(OC)ccc32)n1",
    "val": 7.33
  },
  {
    "compound": "COc1ccc2c(c1)cc(-c1ccccc1)n2Cc1cccc(-c2nnn[nH]2)n1",
    "val": 7.47
  }
]

Below: the item to evaluate.
# input Data request, read-out pIC50, for CCS(=O)(=O)NC(=O)c1cccc(Cn2c(-c3ccccc3)cc3cc(OC)c(F)cc32)n1
# output 7.40

====

- subject.of.test: rat EP1 receptor (Rattus norvegicus)
- Sequence (P70597 whole entry): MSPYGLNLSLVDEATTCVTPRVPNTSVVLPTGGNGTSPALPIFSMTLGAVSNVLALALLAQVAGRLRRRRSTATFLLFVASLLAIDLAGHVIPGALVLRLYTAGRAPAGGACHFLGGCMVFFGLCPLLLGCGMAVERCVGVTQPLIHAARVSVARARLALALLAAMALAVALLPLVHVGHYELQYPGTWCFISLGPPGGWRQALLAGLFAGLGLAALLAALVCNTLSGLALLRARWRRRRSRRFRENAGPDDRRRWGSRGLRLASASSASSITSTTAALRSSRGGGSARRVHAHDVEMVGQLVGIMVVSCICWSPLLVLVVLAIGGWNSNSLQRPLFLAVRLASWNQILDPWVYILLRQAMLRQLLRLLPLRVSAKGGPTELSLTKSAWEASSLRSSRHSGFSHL
- method.description: Test for confirmation of EP1 receptor antagonism: inhibition of prostaglandin E2-induced increase in intracellular calcium concentration in rat EP1 receptor-expressing COS-1 cells
- conditions.used: prostaglandin E2 10 nM, intracellular calcium fluorescence signal
Recorded measurements of pIC50, one per entry
Please keep in mind that pIC50 is minus log10 of the molar concentration; only the number is needed.

# annotated cases, reported pIC50 shown
[
  {
    "molecule": "COc1cc2cc(C3(C)CC3)n(Cc3cccc(-c4nnn[nH]4)n3)c2cc1Cl [Example 5-6]",
    "pIC50": 7.48
  },
  {
    "molecule": "CCC(C)c1cc2cc(OC)ccc2n1Cc1cccc(C(=O)NS(=O)(=O)C(C)C)n1 (centres unmarked) [Example 4-17]",
    "pIC50": 7.31
  },
  {
    "molecule": "COc1ccc2c(c1)cc(-c1ccccc1)n2Cc1cccc(C(=O)NS(=O)(=O)C2CC2)n1 [Example 4-14]",
    "pIC50": 7.20
  },
  {
    "molecule": "COc1cc2cc(-c3ccccc3)n(Cc3cccc(C(=O)NS(=O)(=O)C4CC4)n3)c2cc1F [Example 4-23]",
    "pIC50": 7.55
  },
  {
    "molecule": "COc1ccc2c(c1)cc(-c1ccccc1)n2Cc1cccc(C(=O)NS(=O)(=O)C(C)C)n1 [Example 4-13]",
    "pIC50": 7.43
  }
]

Below: the item to evaluate.
# input Data request, read-out pIC50, for COc1cc2cc(-c3ccsc3)n(Cc3cccc(C(=O)NS(C)(=O)=O)n3)c2cc1F [Example 1-5]
# output 7.31
